# method summary: amyloid nucleation score (Sup35N fusion, yeast selection) (log enrichment); library NNK3; higher = more nucleation; inactive = no reads after selection;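 also: zero at mode of non-aggregating sequences after 7 days selection at 30°C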
metric: amyloid nucleation score

1. ERVTRSMWTVGKRYRTGK :: inactive
2. DPSNACPWGR :: inactive
3. TTFSGETYEYYMFMCW :: 0.532
4. NMRRRYC :: inactive
5. RGIKWWILDFWVDMHTCMFK :: inactive
6. GCVAAMS :: inactive

Hey, can you go through the list below and give me amyloid nucleation score for every item?
1. RRARKWLVIDVRVPSLWSMR
2. KDYLLSSYCEECHDHSSSEL
3. ILENVA
4. MRQIAQRCRSGNAACIGSLG

1. inactive
2. inactive
3. inactive
4. 0.664
